assay-procedure: Bmi1 luciferase reporter increase in mESCs, primary screen, esBAF inhibitor project, mouse ES cells, Bmi1 luciferase knock-in, single point (AID 602393);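 note: 0% = median of the plate's neutral control wells and 100% = double that signal; a rise in the Bmi1 reporter signal indicates esBAF inhibition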
condition-label: 24 h, at 12.5 µM, stronger effect = higher value, 100% = twice the neutral-well signal
About 7,000 (2%) of roughly 350,000 compounds were called active. This excerpt belongs to a sample that is enriched for actives.
Here, each record is paired with measured reporter increase data.
Please state the figure in %; there is no need to write the unit.

Enquiry: Return reporter increase for the following molecule: Cc1noc(C)c1CCC(=O)N1CCCC(CO)(Cc2ccccc2)C1 (stereo not given)
Return: 73.8

Enquiry: Return reporter increase for the following molecule: COc1ccc(-c2csc(Nc3ccc(O)cc3)n2)cc1
Return: 78.7

###

assay-procedure: Bmi1 luciferase reporter increase in mESCs, primary screen, esBAF inhibitor project, mouse ES cells, Bmi1 luciferase knock-in, single point (AID 602393)
condition-label: 24 h, at 12.5 µM, 100% = twice the neutral-well signal
Hit rate of the full screen: of about 350,000 compounds, about 7,000 (2%) were called active. Rule as the data show it: active = activation above about 40%; inconclusive = no clear call, values can overlap the other calls; inactive = below that. Shown is part of a subset that was picked to be rich in actives.
Use one of these outcomes when replying: active, inactive

Take a look at these entries with their results.
[[record]]
item_smiles = "COc1cccc(NC(=O)C[C@@H]2CC[C@@H]3[C@H](COc4ccc(NC(=O)C5CCOCC5)cc4C(=O)N3C)O2)c1"
label_value = "inactive"

[[record]]
item_smiles = "CC(C)NC(=O)N(C)C[C@H]1Oc2ncc(C#CC3(O)CCCC3)cc2C(=O)N([C@H](C)CO)C[C@@H]1C"
label_value = "inactive"


Enquiry: For O=C(Nc1ccc(Cl)cc1)c1csc([C@@H]2O[C@H](CO)[C@H](O)[C@H](O)[C@H]2O)n1 , which call appears in the assay record?
Return: inactive

Enquiry: For CCOC(=O)c1c(N)nn(C(=O)c2ccccc2)c1-c1ccccc1 , which call appears in the assay record?
Return: inactive

Enquiry: For COc1cccc(NC(=O)Nc2ccc3c(c2)C(=O)N(C)[C@@H]2CC[C@@H](CC(=O)NCCc4ccccc4)O[C@H]2CO3)c1 , which call appears in the assay record?
Return: inactive

Enquiry: For CCOC(=O)c1c(C)nc(-c2ccccc2)nc1NC(=O)C(C)C , which call appears in the assay record?
Return: active

Enquiry: For O=C(C[C@H]1C=C[C@H](NS(=O)(=O)c2ccc(F)cc2)[C@H](CO)O1)NCc1ccncn1 , which call appears in the assay record?
Return: inactive

Enquiry: For O=C(Nc1ccc(OCCO)cc1)c1csc([C@H]2C[C@H](O)[C@@H](CO)O2)n1 , which call appears in the assay record?
Return: inactive

###

assay-procedure: Bmi1 luciferase reporter increase in mESCs, primary screen, esBAF inhibitor project, mouse ES cells, Bmi1 luciferase knock-in, single point (AID 602393)
condition-label: 24 h, at 12.5 µM, 100% = twice the neutral-well signal
Hit rate of the full screen: of about 350,000 compounds, about 7,000 (2%) were called active. No stated cut-off is given here; in the data, active means activation above about 40%; inconclusive means no clear call, values can overlap the other calls; inactive means below that. Many of the other results were omitted from the sample, so actives are more common in it than they were.
Use one of these outcomes when replying: active, inactive

[[record]]
molecule = "COc1ccc(S(=O)(=O)N(C)C[C@H]2Oc3ccc(NC(=O)Nc4ccccc4)cc3CC(=O)N([C@H](C)CO)C[C@@H]2C)cc1"
label_value = "inactive"


Enquiry: For COc1cccc(C2CC(c3ccccc3)=NN2S(=O)(=O)c2ccccc2)c1OC (centres undefined) , which call appears in the assay record?
Return: inactive

Enquiry: For COc1ccc(C2=NN(C(=O)CSc3nnnn3C)C(c3ccco3)C2)cc1 (centres undefined) , which call appears in the assay record?
Return: inactive

###

Here, each record is paired with measured reporter increase data.
assay-procedure: Bmi1 luciferase reporter increase in mESCs, primary screen, esBAF inhibitor project, mouse ES cells, Bmi1 luciferase knock-in, single point (AID 602393)
condition-label: 24 h, at 12.5 µM, stronger effect = higher value, 100% = twice the neutral-well signal
The campaign covered roughly 350,000 compounds. About 7,000 (2%) were called active. This is one part of a sample in which actives are shown more often than they occur.
Please state the figure in %; there is no need to write the unit.

[[record]]
compound = "Cc1ccc(S(=O)(=O)NCC[C@@H]2CC[C@H](NC(=O)c3ccccn3)[C@H](CO)O2)cc1"
value_kind = "reporter increase"
number = 1.61


Below: the item to evaluate.
Enquiry: Return reporter increase for the following compound: COCC#Cc1ccc2c(c1)O[C@H](CN(C)C(=O)C1CCOCC1)[C@@H](C)CN([C@@H](C)CO)S2(=O)=O
Return: 5.12

###

assay-procedure: Bmi1 luciferase reporter increase in mESCs, primary screen, esBAF inhibitor project, mouse ES cells, Bmi1 luciferase knock-in, single point (AID 602393);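 note: 0% = median of the plate's neutral control wells and 100% = double that signal; a rise in the Bmi1 reporter signal indicates esBAF inhibition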
condition-label: 24 h, at 12.5 µM, 100% = twice the neutral-well signal
The whole screen tested about 350,000 compounds, of which about 7,000 (2%) were called active. Cut-off read from the data, not from the text of the source: active = activation above about 40%; inconclusive = no clear call, values can overlap the other calls; inactive = below that. This is one part of a sample in which actives are shown more often than they occur.
Use one of these outcomes when replying: 1 for active, -1 for inactive

[[record]]
compound = "CN(C)C(=O)c1cccc(-c2ccc3c(c2)[C@H]2[C@H](CCN2C(=O)c2cccnc2)[C@H](CO)N3)c1"
label_value = -1


Enquiry: For C[C@@H]1CN([C@@H](C)CO)C(=O)c2cccc(N(C)C)c2O[C@@H]1CN(C)S(=O)(=O)c1ccccc1 , which call appears in the assay record?
Return: -1

Enquiry: For O=C(Cc1ccncc1)NCC[C@H]1CC[C@H](NC(=O)C2CC2)[C@H](CO)O1 , which call appears in the assay record?
Return: -1

Enquiry: For O=C(Nc1ncccc1O)c1ccc(C(=O)c2ccccc2)cc1 , which call appears in the assay record?
Return: -1

Enquiry: For Cc1ccc(S(=O)(=O)N[C@@H]2CC[C@@H](CCn3cc(C(C)C)nn3)O[C@H]2CO)cc1 , which call appears in the assay record?
Return: -1

###

assay-procedure: Bmi1 luciferase reporter increase in mESCs, primary screen, esBAF inhibitor project, mouse ES cells, Bmi1 luciferase knock-in, single point (AID 602393);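 note: 0% = median of the plate's neutral control wells and 100% = double that signal; a rise in the Bmi1 reporter signal indicates esBAF inhibition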
condition-label: 24 h, at 12.5 µM, 100% = twice the neutral-well signal
Hit rate of the full screen: of about 350,000 compounds, about 7,000 (2%) were called active. Rule as the data show it: active = activation above about 40%; inconclusive = no clear call, values can overlap the other calls; inactive = below that. Only a selection was taken, and actives are over-represented in it overall.
Use one of these outcomes when replying: active, inactive

Take a look at these entries with their results.
[[record]]
molecule = "Cc1noc(C)c1S(=O)(=O)N(C)C[C@H]1Oc2ccc(NC(=O)Cc3ccccc3)cc2CC(=O)N([C@@H](C)CO)C[C@H]1C"
label_value = "inactive"

[[record]]
molecule = "COCCNC(=O)c1ccc2nc(Cc3ccc(OC)c(OC)c3)oc2c1"
label_value = "active"

[[record]]
molecule = "COc1ccc(Cc2nc3ccc(C(=O)NCC4CCOCC4)cc3o2)cc1OC"
label_value = "inactive"


Enquiry: For COc1ccc(/C=C2/CCCc3ccccc3C2=O)cc1 , which call appears in the assay record?
Return: inactive

Enquiry: For CCC1C(=O)NCCN1C(=O)c1ccc2nc(Cc3ccc(OC)cc3)oc2c1 (stereo not given) , which call appears in the assay record?
Return: inactive

###

Here, each record is paired with measured reporter increase data.
assay-procedure: Bmi1 luciferase reporter increase in mESCs, primary screen, esBAF inhibitor project, mouse ES cells, Bmi1 luciferase knock-in, single point (AID 602393);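 note: 0% = median of the plate's neutral control wells and 100% = double that signal; a rise in the Bmi1 reporter signal indicates esBAF inhibition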
condition-label: 24 h, at 12.5 µM, stronger effect = higher value, 100% = twice the neutral-well signal
Screen size: about 350,000 compounds; about 7,000 (2%) were called active. The full list was thinned out, with actives kept by preference.

[[record]]
compound = "COC(=O)c1ccc(Nc2ncnc3sccc23)cc1"
result = "41.7% (active)"

[[record]]
compound = "CCOC(=O)C1(Cc2ccccc2C)CCCN(S(C)(=O)=O)C1 (stereo unspecified)"
result = "-5.66% (inactive)"

[[record]]
compound = "Cc1ccc(NC(=O)CN2CCc3ccccc3C2)cc1C"
result = "8.63% (inactive)"

[[record]]
compound = "Cn1cccc1C(=O)N1CCc2ccccc2C1"
result = "28.8% (inactive)"

[[record]]
compound = "CCc1ccc(NC(=O)N2CCc3ccccc3C2)cc1"
result = "60.4% (active)"

[[record]]
compound = "O=C(Nc1cccc([N+](=O)[O-])c1)N1CCc2ccccc2C1"
result = "45.9% (active)"

[[record]]
compound = "O=C(CN1CCOCC1)Nc1cccc([N+](=O)[O-])c1"
result = "-2.52% (inactive)"

[[record]]
compound = "O=C(Nc1cccc([N+](=O)[O-])c1)Nn1cnnc1"
result = "9.77% (inactive)"


Enquiry: Return reporter increase for the following compound: CO[C@H]1CN(C)C(=O)c2cc(NS(=O)(=O)CC(F)(F)F)ccc2OC[C@@H](C)N(C(=O)c2ccc3c(c2)OCO3)C[C@@H]1C
Return: 2.12% (inactive)

Enquiry: Return reporter increase for the following compound: Cc1nn(-c2ccc([N+](=O)[O-])cc2)c(N)c1-c1ccccc1
Return: 49.1% (active)

Enquiry: Return reporter increase for the following compound: CCOC(=O)C1(Cc2ccccc2C)CCCN(C(=O)CN2C(=O)CSC2=O)C1 (stereo unspecified)
Return: 15.7% (inactive)
